# Assay Target: T1, CD73 on the surface of human tumor cells (human, UniProt P21589 27-549)
# T1 construct: whole, on cells; One entry for endogenous CD73 on all cell lines; the cell line is named under assay or readout; also called CD73 receptors on the surface of tumor cells; tumor cell CD73
# T1 sequence (looked up): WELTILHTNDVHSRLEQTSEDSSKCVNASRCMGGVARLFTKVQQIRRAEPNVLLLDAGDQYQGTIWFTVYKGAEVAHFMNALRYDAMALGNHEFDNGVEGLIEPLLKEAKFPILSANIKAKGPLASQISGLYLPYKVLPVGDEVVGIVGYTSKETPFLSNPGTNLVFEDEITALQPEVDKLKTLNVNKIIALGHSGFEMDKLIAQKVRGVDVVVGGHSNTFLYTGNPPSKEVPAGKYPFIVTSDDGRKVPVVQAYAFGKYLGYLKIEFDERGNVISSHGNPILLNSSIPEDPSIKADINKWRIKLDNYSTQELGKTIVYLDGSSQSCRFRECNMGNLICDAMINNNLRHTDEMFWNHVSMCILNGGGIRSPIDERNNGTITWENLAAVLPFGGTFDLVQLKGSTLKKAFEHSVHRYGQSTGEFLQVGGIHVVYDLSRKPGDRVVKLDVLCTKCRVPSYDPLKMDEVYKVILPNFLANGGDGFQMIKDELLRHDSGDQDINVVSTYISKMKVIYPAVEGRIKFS
# Assay Comment: flow cytometry, MDA-MB-231 cells
Value Type: binding result

{"Binder": "Hu001c-23 (antibody, V domains shown, Humanized) VH: QVQLVQSGAEVKKPGASVKVSCKASGYTFTNYYIYWVKQRPGQGLEWIGWIYPGNLNIKYNEKFKGRVTITADKSASTAYMELSSLRSEDTAVYYCARDDNYAWFAYWGQGTLVTVSS VL: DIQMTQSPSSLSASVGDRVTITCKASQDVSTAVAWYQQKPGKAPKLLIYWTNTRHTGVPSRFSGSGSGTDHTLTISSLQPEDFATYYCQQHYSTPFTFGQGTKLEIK", "Value Type": "binding result", "Meas Value": "binds"}
{"Binder": "Hu001c-22 (antibody, V domains shown, Humanized) VH: QVQLVQSGAEVKKPGASVKVSCKASGYTFTNYYIYWVKQRPGQRLEWIGWIYPGNLNIKYNEKFKGRVTITADKSASTAYMELSSLRSEDTAVYYCARDDNYAWFAYWGQGTLVTVSS VL: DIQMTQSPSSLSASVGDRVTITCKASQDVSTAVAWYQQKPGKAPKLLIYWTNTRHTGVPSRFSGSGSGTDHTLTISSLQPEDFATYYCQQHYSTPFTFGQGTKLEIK", "Value Type": "binding result", "Meas Value": "binds"}
{"Binder": "Hu001c-25 (antibody, V domains shown, Humanized) VH: QVQLVQSGAEVKKPGASVKVSCKASGYTFTNYYIYWVRQAPGQRLEWIGWIYPGNLNIKYNEKFKGRVTITADKSASTAYMELSSLRSEDTAVYYCARDDNYAWFAYWGQGTLVTVSS VL: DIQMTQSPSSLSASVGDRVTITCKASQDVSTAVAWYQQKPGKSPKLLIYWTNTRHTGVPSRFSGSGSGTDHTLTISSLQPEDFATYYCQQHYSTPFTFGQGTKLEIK", "Value Type": "binding result", "Meas Value": "binds"}

Each recorded value in this set is attributed to patent US20210024646A1.
